Give measured exon inclusion enrichment index for each item. Keep answers brief.
B1: mRNA-splicing (parent)
chain: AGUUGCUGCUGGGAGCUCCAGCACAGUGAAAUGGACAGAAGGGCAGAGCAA

Variants of: B1
method-description: exon inclusion enrichment index; higher = more inclusion; WT1 exon 5 minigene, HEK293
Numbers only.

>>> data_value("G5C C6A U7C G8A U10A G43A C44A")
0.532
>>> data_value("G5A C6U U7A G8U C9A A25G G26A")
0.36
>>> data_value("G5C C6G U7C U10C C19G A20G")
2.13
>>> data_value("G5A U7C G8A U10C A45G G46U")
2.26
>>> data_value("C6U U7C C9A U10C")
3.37

Parameter requested: exon inclusion enrichment index. Apply to each item below.
1. G5A U7C G8A U10C G26C U27C
2. A40C G41A
3. U4G G5U C6A U7A C9A U10A
4. G5C C6U G8C C9U U10C G33C G34C
5. C6A U7C C9A U10C A40U G41C
6. C6A U7A C9A U10A U27A G28C

Completion:
1. 3.74
2. 0.0344
3. 0.0439
4. 1.12
5. 3.18
6. 0.818
